Molecular target: TYK2 (Homo sapiens, UniProt P29597)
Sequence (P29597 whole entry): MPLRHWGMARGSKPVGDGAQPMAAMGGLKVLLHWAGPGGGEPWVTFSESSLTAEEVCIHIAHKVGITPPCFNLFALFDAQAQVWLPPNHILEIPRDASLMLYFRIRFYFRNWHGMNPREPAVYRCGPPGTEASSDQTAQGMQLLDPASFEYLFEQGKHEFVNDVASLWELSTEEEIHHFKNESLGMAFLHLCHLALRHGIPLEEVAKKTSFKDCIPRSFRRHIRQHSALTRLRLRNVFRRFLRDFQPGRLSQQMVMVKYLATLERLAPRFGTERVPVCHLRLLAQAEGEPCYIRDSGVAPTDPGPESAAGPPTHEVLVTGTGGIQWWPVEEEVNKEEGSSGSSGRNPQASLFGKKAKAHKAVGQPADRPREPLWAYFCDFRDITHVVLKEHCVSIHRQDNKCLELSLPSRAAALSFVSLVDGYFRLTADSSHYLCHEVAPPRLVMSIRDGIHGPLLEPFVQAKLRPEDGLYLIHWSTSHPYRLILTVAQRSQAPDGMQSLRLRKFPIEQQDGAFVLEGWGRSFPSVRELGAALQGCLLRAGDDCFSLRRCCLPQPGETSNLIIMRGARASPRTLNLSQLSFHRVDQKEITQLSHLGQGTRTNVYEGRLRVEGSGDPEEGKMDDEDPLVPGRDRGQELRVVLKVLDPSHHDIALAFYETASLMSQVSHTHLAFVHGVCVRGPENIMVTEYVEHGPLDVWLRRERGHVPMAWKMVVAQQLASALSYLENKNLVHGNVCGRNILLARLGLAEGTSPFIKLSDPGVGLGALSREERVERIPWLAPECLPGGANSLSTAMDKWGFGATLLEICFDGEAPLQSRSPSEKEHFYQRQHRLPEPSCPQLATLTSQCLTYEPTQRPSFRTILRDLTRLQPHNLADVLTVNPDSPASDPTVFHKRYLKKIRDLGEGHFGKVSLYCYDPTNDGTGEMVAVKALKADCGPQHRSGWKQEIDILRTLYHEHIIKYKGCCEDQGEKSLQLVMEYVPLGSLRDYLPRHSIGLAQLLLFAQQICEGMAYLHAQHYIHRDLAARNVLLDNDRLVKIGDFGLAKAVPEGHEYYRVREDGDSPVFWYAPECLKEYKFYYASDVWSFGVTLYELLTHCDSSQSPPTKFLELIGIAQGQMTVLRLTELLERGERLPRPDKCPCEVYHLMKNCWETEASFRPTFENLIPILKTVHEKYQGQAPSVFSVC
Experiment: biochemical
Parameters: Eurofins Cerep biochemical enzymatic kinase assay, per cent inhibition at a single concentration, duplicate
quantity.name: inhibition at 10 µM (%)

Consider the worked cases shown below.
molecule	quantity.name	recorded.result
CC12CCN(C#N)C1CCC2Nc1ncnc2[nH]ccc12 (stereo not shown) [36c]	inhibition at 10 µM	74
CCS(=O)(=O)N1CCC2(C)C(Nc3ncnc4[nH]ccc34)CCC12 (stereo not shown) [36d]	inhibition at 10 µM	67

I: C=CC(=O)N1CCC2(C)C(Nc3ncnc4[nH]ccc34)CCC12 (stereo not shown) [36b]
II: CC12CCN(C(=O)CC#N)C1CCC2Nc1ncnc2[nH]ccc12 (stereo not shown) [36a]
## Task # return whichever of I and II has the smaller inhibition at 10 µM Pick one; state its label.
## Result I
(I: 52%, II: 75%)

---

Target: JAK1 (Homo sapiens, UniProt P23458)
Sequence (P23458 whole entry): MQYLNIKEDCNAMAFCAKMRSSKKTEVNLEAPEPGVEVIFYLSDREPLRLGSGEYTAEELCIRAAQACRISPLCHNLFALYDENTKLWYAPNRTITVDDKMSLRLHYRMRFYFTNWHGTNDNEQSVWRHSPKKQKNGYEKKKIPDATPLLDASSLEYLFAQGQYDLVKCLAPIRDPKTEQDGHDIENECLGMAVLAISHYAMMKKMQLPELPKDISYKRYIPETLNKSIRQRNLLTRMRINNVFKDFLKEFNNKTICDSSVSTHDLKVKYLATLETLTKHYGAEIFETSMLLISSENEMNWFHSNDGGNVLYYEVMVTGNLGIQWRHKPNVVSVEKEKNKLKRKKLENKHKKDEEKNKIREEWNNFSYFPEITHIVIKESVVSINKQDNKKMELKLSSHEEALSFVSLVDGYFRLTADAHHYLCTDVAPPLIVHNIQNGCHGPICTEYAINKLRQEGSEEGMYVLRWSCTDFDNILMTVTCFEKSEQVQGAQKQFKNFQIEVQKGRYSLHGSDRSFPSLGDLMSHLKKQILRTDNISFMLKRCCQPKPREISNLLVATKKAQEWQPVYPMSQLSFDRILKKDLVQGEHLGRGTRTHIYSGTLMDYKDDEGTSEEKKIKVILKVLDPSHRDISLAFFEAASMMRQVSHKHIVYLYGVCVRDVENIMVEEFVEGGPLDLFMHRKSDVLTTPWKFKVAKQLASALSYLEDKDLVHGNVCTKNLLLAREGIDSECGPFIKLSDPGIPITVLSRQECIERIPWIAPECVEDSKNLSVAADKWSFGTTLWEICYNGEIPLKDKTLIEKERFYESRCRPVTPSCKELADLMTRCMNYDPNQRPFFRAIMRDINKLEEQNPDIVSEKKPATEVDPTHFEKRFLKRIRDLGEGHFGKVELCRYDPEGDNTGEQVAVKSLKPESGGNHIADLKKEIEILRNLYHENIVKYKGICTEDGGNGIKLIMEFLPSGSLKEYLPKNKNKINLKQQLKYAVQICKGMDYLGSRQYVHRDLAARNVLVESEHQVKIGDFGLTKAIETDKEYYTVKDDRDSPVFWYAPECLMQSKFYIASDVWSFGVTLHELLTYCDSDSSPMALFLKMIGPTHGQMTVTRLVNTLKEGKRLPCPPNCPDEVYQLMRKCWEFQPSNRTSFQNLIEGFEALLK
Test: biochemical
Design: radiometric filter-binding kinase inhibition assay (Eurofins Cerep), scintillation counting
Details: 1 uM
quantity.name: inhibition at 1 µM (%)

// solved cases for inhibition at 1 µM follow
compound	recorded.result
CC12CCN(c3ncnc4[nH]ccc34)C1CCC2NC(=O)CC#N (centres unmarked) [40a]	99
C[C@]12CCN(c3ncnc4[nH]ccc34)[C@H]1CC[C@@H]2NC#N (racemic) [40c]	95
C=CC(=O)N[C@H]1CC[C@@H]2N(c3ncnc4[nH]ccc34)CC[C@]12C (racemic) [40b]	93

I: CCS(=O)(=O)NC1CCC2N(c3ncnc4[nH]ccc34)CCC12C (centres unmarked) [40d]
II: CCS(=O)(=O)N1CCC2(C)C(Nc3ncnc4[nH]ccc34)CCC12 (centres unmarked) [36d]
## Task Which shows the larger inhibition at 1 µM value: I or II ? Your answer should be the label of the entry you select.
## Result I
(I: 76%, II: 45%)

---

Molecular target: JAK2 (Homo sapiens)
Sequence (O60674 whole entry): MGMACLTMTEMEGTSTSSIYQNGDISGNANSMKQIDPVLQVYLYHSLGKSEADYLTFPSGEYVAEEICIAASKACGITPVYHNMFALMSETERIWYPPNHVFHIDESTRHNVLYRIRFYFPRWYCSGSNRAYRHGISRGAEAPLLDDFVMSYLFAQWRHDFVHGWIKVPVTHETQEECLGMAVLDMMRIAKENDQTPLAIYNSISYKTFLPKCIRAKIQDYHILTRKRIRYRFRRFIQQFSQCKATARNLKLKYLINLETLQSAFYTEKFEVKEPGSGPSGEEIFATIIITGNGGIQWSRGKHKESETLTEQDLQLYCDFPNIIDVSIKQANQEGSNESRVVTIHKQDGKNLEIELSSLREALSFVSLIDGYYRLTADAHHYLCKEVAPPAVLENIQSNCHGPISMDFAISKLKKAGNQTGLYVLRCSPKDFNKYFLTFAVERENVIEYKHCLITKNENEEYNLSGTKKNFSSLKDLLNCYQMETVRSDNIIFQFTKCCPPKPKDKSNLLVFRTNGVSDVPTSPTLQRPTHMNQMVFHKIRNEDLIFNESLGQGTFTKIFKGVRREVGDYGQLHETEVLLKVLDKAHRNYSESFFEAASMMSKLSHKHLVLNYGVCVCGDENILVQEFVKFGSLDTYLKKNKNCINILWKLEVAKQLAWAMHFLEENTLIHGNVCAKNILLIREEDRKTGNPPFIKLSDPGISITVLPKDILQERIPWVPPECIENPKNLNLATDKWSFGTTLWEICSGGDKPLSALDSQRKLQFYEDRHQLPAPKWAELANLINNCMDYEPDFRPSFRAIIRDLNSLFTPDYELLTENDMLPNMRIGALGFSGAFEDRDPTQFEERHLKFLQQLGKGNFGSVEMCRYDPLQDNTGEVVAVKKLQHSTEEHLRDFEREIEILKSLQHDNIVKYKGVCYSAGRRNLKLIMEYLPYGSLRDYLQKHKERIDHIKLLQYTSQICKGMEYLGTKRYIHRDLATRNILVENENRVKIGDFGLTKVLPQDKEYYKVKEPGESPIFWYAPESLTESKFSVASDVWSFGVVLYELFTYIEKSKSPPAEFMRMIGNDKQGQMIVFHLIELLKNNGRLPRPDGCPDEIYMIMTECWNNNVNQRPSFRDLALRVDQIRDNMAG
Experiment: biochemical
Set-up: radiometric filter-binding kinase inhibition assay (Eurofins Cerep), scintillation counting
Conditions: 10 uM
quantity.name: inhibition at 10 µM (%)

compound	measurement.target	recorded.result
C=CC(=O)N[C@H]1CC[C@@H]2N(c3ncnc4[nH]ccc34)CC[C@]12C (racemic) [40b]	JAK2 (Homo sapiens)	96
CCS(=O)(=O)N1CCC2(C)C(Nc3ncnc4[nH]ccc34)CCC12 (stereo not shown) [36d]	JAK2 (Homo sapiens)	98
C[C@]12CCN(c3ncnc4[nH]ccc34)[C@H]1CC[C@@H]2NC#N (racemic) [40c]	JAK2 (Homo sapiens)	85
CC12CCN(c3ncnc4[nH]ccc34)C1CCC2NC(=O)CC#N (stereo not shown) [40a]	JAK2 (Homo sapiens)	91

---

Biological target: JAK3 (Homo sapiens, UniProt P52333)
Sequence (P52333 whole entry): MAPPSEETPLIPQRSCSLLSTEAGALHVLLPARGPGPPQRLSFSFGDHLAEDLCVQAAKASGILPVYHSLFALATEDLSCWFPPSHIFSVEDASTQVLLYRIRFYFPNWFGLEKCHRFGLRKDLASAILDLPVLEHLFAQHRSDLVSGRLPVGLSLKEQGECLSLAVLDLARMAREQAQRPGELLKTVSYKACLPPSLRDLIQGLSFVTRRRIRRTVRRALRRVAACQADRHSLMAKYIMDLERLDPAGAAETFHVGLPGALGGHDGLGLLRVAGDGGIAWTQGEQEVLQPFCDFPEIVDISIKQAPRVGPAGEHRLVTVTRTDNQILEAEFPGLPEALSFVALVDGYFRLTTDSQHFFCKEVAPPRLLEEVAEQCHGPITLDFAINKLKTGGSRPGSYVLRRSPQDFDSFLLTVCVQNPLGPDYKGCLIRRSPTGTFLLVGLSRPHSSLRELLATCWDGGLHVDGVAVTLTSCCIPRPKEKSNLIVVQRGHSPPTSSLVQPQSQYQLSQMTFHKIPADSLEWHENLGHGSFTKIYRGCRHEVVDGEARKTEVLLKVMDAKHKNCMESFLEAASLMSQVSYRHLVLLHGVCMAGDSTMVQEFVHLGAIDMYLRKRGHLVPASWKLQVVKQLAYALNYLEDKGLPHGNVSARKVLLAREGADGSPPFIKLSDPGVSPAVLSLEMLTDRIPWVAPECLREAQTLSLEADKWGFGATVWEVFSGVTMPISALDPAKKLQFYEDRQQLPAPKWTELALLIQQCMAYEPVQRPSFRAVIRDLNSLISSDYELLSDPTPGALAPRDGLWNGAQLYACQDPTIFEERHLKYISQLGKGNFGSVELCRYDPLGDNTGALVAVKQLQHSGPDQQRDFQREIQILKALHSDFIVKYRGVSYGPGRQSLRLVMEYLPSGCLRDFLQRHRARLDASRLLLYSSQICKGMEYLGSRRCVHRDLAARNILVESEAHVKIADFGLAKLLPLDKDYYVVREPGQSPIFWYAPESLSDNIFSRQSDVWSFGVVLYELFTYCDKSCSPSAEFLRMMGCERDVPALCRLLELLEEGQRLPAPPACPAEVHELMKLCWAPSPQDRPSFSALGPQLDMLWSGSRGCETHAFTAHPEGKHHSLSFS
Assay: biochemical
Design: Eurofins Cerep biochemical enzymatic kinase assay, per cent inhibition at a single concentration, duplicate
Settings: read-out: % of inhibition ^a / JAK3
quantity.name: inhibition at 1 µM (%)

Example entries and their recorded answers appear below.
compound	inhibition at 1 µM [%]
C[C@]12CCN(c3ncnc4[nH]ccc34)[C@H]1CC[C@H]2NC#N (racemic) [34c]	43
N#CN1CCC2(CCN(c3ncnc4[nH]ccc34)C2)C1 (racemic) [43c]	26
CCS(=O)(=O)N[C@@H]1CC[C@@H]2N(c3ncnc4[nH]ccc34)CC[C@@]21C (racemic) [34d]	45
C=CC(=O)NC1CCC2N(c3ncnc4[nH]ccc34)CCC12C (stereo not drawn) [34b]	38

A: CCS(=O)(=O)N1CCC2(CCN(c3ncnc4[nH]ccc34)C2)C1 (stereo not drawn) [43d]
B: CC12CCN(c3ncnc4[nH]ccc34)C1CCC2NC(=O)CC#N (stereo not drawn) [34a]
## Task Which of the two gives a bigger number for inhibition at 1 µM: A or B ? Answer format: the label of the selected item.
## Result B
(B: 43%, A: 22%)

---

Target: UniProt P23458
Assay: biochemical
Set-up: radiometric filter-binding kinase inhibition assay (Eurofins Cerep), scintillation counting
Details: 10 uM
quantity.name: inhibition at 10 µM (%)

molecule	measurement.target	inhibition at 10 µM / %
CC12CCN(c3ncnc4[nH]ccc34)C1CCC2NC(=O)CC#N (stereo not shown) [40a]	UniProt P23458	99
C[C@]12CCN(c3ncnc4[nH]ccc34)[C@H]1CC[C@@H]2NC#N (racemic) [40c]	UniProt P23458	100
C=CC(=O)N[C@H]1CC[C@@H]2N(c3ncnc4[nH]ccc34)CC[C@]12C (racemic) [40b]	UniProt P23458	100
CCS(=O)(=O)N1CCC2(C)C(Nc3ncnc4[nH]ccc34)CCC12 (stereo not shown) [36d]	UniProt P23458	99

---

Target: JAK3 (Homo sapiens)
Test: biochemical
Design: radiometric filter-binding kinase inhibition assay (Eurofins Cerep), scintillation counting
Conditions: 10 uM
Procedure: Given the structural similarities between the expanded ring analogues 16a and 16b and the previously described inhibitor KMC420, we initially evaluated their activity at 0.1 μM against JAK1, JAK2, JAK3, and TYK2, using biochemical enzymatic assays provided by Eurofins Cerep SA.
quantity.name: inhibition at 10 µM (%)

compound	inhibition at 10 µM [%]
C=CC(=O)N[C@H]1CC[C@@H]2N(c3ncnc4[nH]ccc34)CC[C@]12C (racemic) [40b]	99
CC12CCN(c3ncnc4[nH]ccc34)C1CCC2NC(=O)CC#N (stereo not shown) [40a]	89
C[C@]12CCN(c3ncnc4[nH]ccc34)[C@H]1CC[C@@H]2NC#N (racemic) [40c]	79
CCS(=O)(=O)N1CCC2(C)C(Nc3ncnc4[nH]ccc34)CCC12 (stereo not shown) [36d]	96

---

Target: TYK2 (Homo sapiens, UniProt P29597)
Assay: biochemical
Design: radiometric filter-binding kinase inhibition assay (Eurofins Cerep), scintillation counting
Conditions: 1 uM
quantity.name: inhibition at 1 µM (%)

compound	quantity.name	recorded.result
C[C@]12CCN(c3ncnc4[nH]ccc34)[C@H]1CC[C@@H]2NC#N (racemic) [40c]	inhibition at 1 µM	92
CCS(=O)(=O)N1CCC2(C)C(Nc3ncnc4[nH]ccc34)CCC12 (stereo not shown) [36d]	inhibition at 1 µM	53
CC12CCN(c3ncnc4[nH]ccc34)C1CCC2NC(=O)CC#N (stereo not shown) [40a]	inhibition at 1 µM	82
C=CC(=O)N[C@H]1CC[C@@H]2N(c3ncnc4[nH]ccc34)CC[C@]12C (racemic) [40b]	inhibition at 1 µM	70

---

Target: UniProt O60674
Assay: biochemical
Design: Eurofins Cerep biochemical enzymatic kinase assay, per cent inhibition at a single concentration, duplicate
quantity.name: inhibition at 1 µM (%)

compound	unit.name	inhibition at 1 µM
N#CN1CCC2(CCN(c3ncnc4[nH]ccc34)C2)C1 (racemic) [43c]	%	59
CCS(=O)(=O)N1CCC2(CCN(c3ncnc4[nH]ccc34)C2)C1 (stereo not drawn) [43d]	%	54

P: CC12CCN(c3ncnc4[nH]ccc34)C1CCC2NC(=O)CC#N (stereo not drawn) [34a]
Q: C=CC(=O)NC1CCC2N(c3ncnc4[nH]ccc34)CCC12C (stereo not drawn) [34b]
R: CCS(=O)(=O)N[C@@H]1CC[C@@H]2N(c3ncnc4[nH]ccc34)CC[C@@]21C (racemic) [34d]
## Task Put the entries in order of inhibition at 1 µM, starting with the largest number. Field: ranking. Enter the labels in the order requested.
## Result R, P, Q

---

Biological target: TYK2 (Homo sapiens)
Test: biochemical
Parameters: Eurofins Cerep biochemical enzymatic kinase assay, per cent inhibition at a single concentration, duplicate
Source text: Spiro diamines containing a deazapurine ring are known JAK inhibitors.[35]
quantity.name: inhibition at 1 µM (%)

Study these solved cases before continuing.
compound	recorded.result
C[C@]12CCN(c3ncnc4[nH]ccc34)[C@H]1CC[C@H]2NC#N (racemic) [34c]	53
CC12CCN(c3ncnc4[nH]ccc34)C1CCC2NC(=O)CC#N (stereo not drawn) [34a]	41
N#CN1CCC2(CCN(c3ncnc4[nH]ccc34)C2)C1 (racemic) [43c]	63

I: CCS(=O)(=O)N[C@@H]1CC[C@@H]2N(c3ncnc4[nH]ccc34)CC[C@@]21C (racemic) [34d]
II: C=CC(=O)NC1CCC2N(c3ncnc4[nH]ccc34)CCC12C (stereo not drawn) [34b]
III: CCS(=O)(=O)N1CCC2(CCN(c3ncnc4[nH]ccc34)C2)C1 (stereo not drawn) [43d]
## Task Sort the 3 compounds by inhibition at 1 µM; largest first, smallest last. Reply format: the labels, ordered as requested.
## Result I, III, II
(I: 56%, III: 34%, II: 23%)

---

This section lists IC50 readings for JAK1 (Homo sapiens, UniProt P23458).
quantity.name: IC50 (nM)

P: C[C@]12CCN(c3ncnc4[nH]ccc34)[C@H]1CC[C@@H]2NC(=O)CC#N [(R,S,S)-40a]
Q: C[C@@]12CCN(c3ncnc4[nH]ccc34)[C@@H]1CC[C@H]2NC(=O)CC#N [(S,R,R)-40a]
## Task Field: lower IC50 | Options: P / Q Give the label under which the chosen entry appears.
## Result Q
(Q: 18 nM, P: 69 nM)

Origin of values: paper PMC12679645
